Documented shrunken log2 fold change across a set of sequences
# Test system: Escherichia coli TOP10;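 also: peptides expressed intracellularly from a pBAD plasmid library in pooled LB shake-flask culture, induced with 0.3% L-arabinose, DNA abundance read by NGS, three biological replicates, DESeq2 with apeglm shrinkage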
# Assay name: shrunken log2 fold change of peptide-encoding DNA abundance (4.5 h post-induction vs induction); higher = less antimicrobial activity (less host growth inhibition)
# Conditions: time post-induction: 4.5 h; library: site-saturation at positions 5, 18, 19, 20
Note: the reply should be a number with no unit written.

The examples below pair each entry with its known result.
Sequence record	shrunken log2 fold change
RRIRERPPRLPRPRPRPCWVPRP	-0.26
RRIRPRPPRLPRPRPRPVGWPRP	0.826
RRIRPRPPRLPRPRPRPNAGPRP	0.0847
RRIRLRPPRLPRPRPRPCMEPRP	0.115

-- ask Recorded shrunken log2 fold change of "RRIRYRPPRLPRPRPRPPGAPRP" , please.
-- reply 0.397

-- ask Recorded shrunken log2 fold change of "RRIRIRPPRLPRPRPRPAWFPRP" , please.
-- reply -0.00823

-- ask Recorded shrunken log2 fold change of "RRIRMRPPRLPRPRPRPPGEPRP" , please.
-- reply 1.47

-- ask Recorded shrunken log2 fold change of "RRIRNRPPRLPRPRPRPSCIPRP" , please.
-- reply -0.507

-- ask Recorded shrunken log2 fold change of "RRIRNRPPRLPRPRPRPGQDPRP" , please.
-- reply -0.0269

-- ask Recorded shrunken log2 fold change of "RRIRRRPPRLPRPRPRPMLNPRP" , please.
-- reply -0.157

Cited source for all entries: the supplement of paper PMC9112550
